Listed below: Kd values for each entry.
# tested_system: T1, Recombinant TNFα containing an N-terminal 13-aa ybbR tag (human, UniProt P01375 77-233, biotin at the ybbR tag in the ELISA assays)
# T1 construct: Expressed in E. coli; Same construct used unlabelled (FA) and biotinylated on NeutrAvidin (ELISA); also called tumor necrosis factor-alpha; human TNFα; not shown: N-terminal 13-aa ybbR tag
# T1 sequence (P01375 77-233): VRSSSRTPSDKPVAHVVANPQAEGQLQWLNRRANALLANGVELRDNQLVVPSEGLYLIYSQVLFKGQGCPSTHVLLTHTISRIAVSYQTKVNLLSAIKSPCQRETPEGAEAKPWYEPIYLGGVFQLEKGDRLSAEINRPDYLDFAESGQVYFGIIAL
# procedure_details: FA, FITC-peptide + TNFα titration
Positions of bridges follow the written chain, without caps; N, C: chain ends. Non-standard residues stand in square brackets, D forms with d. Primed or numbered codes have the meaning given here. No end group written: not given here. *: point of attachment. FITC = O=C1OC2(c3ccc(O)cc3Oc3cc(O)ccc32)c2ccc(NC(=S)*)cc21; trimesoyl″ = benzene-1,3,5-tricarbonyl scaffold; FITC′ = fluorescein isothiocyanate, on Lys NZ; Phe(4-F) = N[C@@H](Cc1ccc(F)cc1)C(=O)O; Nle = CCCC[C@H](N)C(=O)O; Dap = NC[C@H](N)C(=O)O

>  <binder>
[Nle]Y[dS]KY[dL]G[dK]H[Dap]K(FITC)-NH2 (linker N-4-10 via trimesoyl″) [C1-31]

>  <Kd>
2500 nM

$$$$
>  <binder>
[Nle]F[dS]KY[dF]G[dK]H[Dap]K(FITC′)-NH2 (linker (positions not given here) via trimesoyl″; not fully specified (N-terminus, bridges)) [C1-22]

>  <Kd>
1700 nM

$$$$
>  <binder>
[Nle]L[dS]KY[dF]G[dK]H[Dap]K(FITC)-NH2 (linker N-4-10 via trimesoyl″) [C1-27]

>  <Kd>
3700 nM

$$$$
>  <binder>
[Nle][Phe(4-F)][dS]KY[dH]G[dK]H[Dap]K(FITC)-NH2 (linker (positions not given here) via trimesoyl″; not fully specified (bridges)) [C1-39]

>  <Kd>
1700 nM

$$$$
